assay: chemical genetic growth profiling, strain panel (AID 1159580);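 note: tested at 20 µM; growth read once vehicle control cultures reached saturation at 30 °C; lower values mean less growth of the strain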; details: S. cerevisiae deletion strains, growth OD, locus YLR342W, strain FKS1
Hit rate of the full screen: of about 5,500 compounds, about 2,000 (36%) were called active. Another 18% or so got no clear call; they are omitted. Cut-off read from the data, not from the text of the source: active = normalized growth mostly below about 0.91 (no sharp cut-off); inconclusive = no clear call, values can overlap the other calls; inactive = mostly above about 0.92. The list shows a part of the results.
// allowed return values: active, inactive

Please review the following examples before continuing.
compound=C[N+]1(CCCCC[N+]2(C)CCCC2)CCCC1 discrete_label=inactive
compound=O=c1c2ccccc2oc2ccccc12 discrete_label=inactive
compound="CC(=O)O[C@@H]1CC2C(C)(C)CCC(=O)[C@]2(C)C2CC[C@@]3(C)[C@H](c4ccoc4)OC(=O)C4OC43[C@@]21C (stereo partly specified)" discrete_label=inactive
compound=CC(=O)Nc1ccc(OC(=O)c2ccccc2O)cc1 discrete_label=inactive
compound=CN(C)CCC=C1c2ccccc2CCc2ccccc21 discrete_label=inactive

Exam item: # lookup: test call for COCCOC(=O)C1=C(C)NC(C)=C(C(=O)OC(C)C)C1c1cccc([N+](=O)[O-])c1 (stereo unspecified)
Marked response: inactive

Exam item: Hey, what did the test say about CC(C)c1ccc2c(c1O)CC[C@H]1C3=C(CC[C@]21C)C(=O)OC3 ?
Marked response: inactive

Exam item: What is the recorded call for this compound in the test? C=CCc1ccccc1OCC(O)CNC(C)C (stereo unspecified)
Marked response: inactive

Exam item: # lookup: test call for CC(=O)CC(c1ccccc1)c1c(O)c2ccccc2oc1=O (stereo unspecified)
Marked response: inactive

Exam item: For O=C(O)c1cc(=O)c2ccccc2o1 , what call appears in the results of this test?
Marked response: inactive

Exam item: What outcome does the record of this test show for O=c1oc2ccccc2c(O)c1Cc1c(O)c2ccccc2oc1=O ?
Marked response: inactive

Exam item: What call does the record list for O=c1c(-c2ccc(O)cc2)coc2cc(O)cc(O)c12 ?
Marked response: inactive

Exam item: Could you please tell me the result logged for CC(C)Oc1ccc2c(=O)cc(-c3ccccc3)oc2c1 in this assay?
Marked response: inactive
